Reference for the values: PubChem BioAssay (NCATS)

test system: PC49; test: qHTS profiling for inhibitors of Plasmodium falciparum proliferation (AID 504749); note: nearly all actives have a fitted effect of over 60% in size; note: potency is the fitted concentration of half-maximal effect; conditions: P. falciparum in erythrocytes, SYBR Green DNA, 72 h; series mostly up to 28.7 µM
Results filed as inconclusive are left out. Activity calls are given as the source filed them. Calls come from the whole dose curve; as a rule, active = well fitted inhibition curve with a large enough effect; inconclusive = small, poorly fitted or top-dose-only effect; inactive = flat fitted curve, though single readings scatter.
property-measured: Potency

Here is how some compounds turned out for Potency.
> print(dat)
                                   compound            result
1  CN1[C@@H](CC(=O)c2ccccc2)CCC[C@H]1C[C@H](O)c1ccccc1  7.08 µM (active)
2                      Nc1ccc(C(=O)O)c(O)c1          inactive
3  CC(C(=O)O)c1ccc2c(c1)[nH]c1ccc(Cl)cc12 (centres undefined)          inactive
4  COc1cc(/C=C/C(=O)CC(=O)/C=C/c2ccc(O)c(OC)c2)ccc1O          inactive
5  COc1cc(/C=C/C(=O)N2CCN(CC(=O)N3CCCC3)CC2)cc(OC)c1OC          inactive
6      Cc1[nH]cnc1CN1CCc2c(c3ccccc3n2C)C1=O          inactive
7          [O-][n+]1ccccc1SSc1cccc[n+]1[O-]  1.41 µM (active)
8        Cc1c(Nc2ncccc2C(=O)O)cccc1C(F)(F)F          inactive

We next turn to a different compound, shown below.
Please indicate recorded Potency of "O=C(O)Cc1ccc(-c2ccccc2)cc1" measured with PC49. inactive
